The following molecules are listed with their measured relative β-galactosidase activity, inducer Cs values.
system: tetA promoter (PtetA)-lacZ reporter in E. coli KM3; type: cell-based; conditions: Table 4; chlorsulfuron 20 μg/ml (20 ppm); 48 hrs at 30° C.
recorded-endpoint: relative β-galactosidase activity, inducer Cs

{"molecule": "L1-24: library L1 hit, sulfonylurea-responsive TetR(B) variant (protein, Sulfonylurea responsive repressor L1-24) MGSRLDKSKVINSALELLNEVGIEGLTTRKLAQKLGVEQPTLYWHVKNKRALLDALAIEMLDRHNTHFCPLEGESWQDFLRNSAKSMRCALLSHRDGAKVLLGTAVTEKQYETTENSLAFLCQQGFSLENALYAIRAVRTFTLGCVLVDQERQVAKEERETPTTDSMPPLLRQAKELLDHQGAEPAFLFGLELIICGLEKQLKCESGS", "readout-number": 3.3}
{"molecule": "L1-7: library L1 hit, sulfonylurea-responsive TetR(B) variant, SEQ ID NO: 4 (protein, Sulfonylurea responsive repressor L1-07) MGSRLDKSKVINSALELLNEVGIEGLTTRKLAQKLGVEQPTLYWHVKNKRALLDALAIEMLDRHNTHFCPLEGESWQDFLRNNAKSWRCALLSHRDGAKVVLGTAITEKQYETHENPLAFLCQQGFSLENALYAIAAVRRFTLGCVLVDQERQVAKEERETPTTDSMPPLLRQASELQDHQGAEPAFLFGLELIICGLEKQLKCERGS", "readout-number": 3.1}
{"molecule": "L1-31: library L1 hit, sulfonylurea-responsive TetR(B) variant (protein, Sulfonylurea responsive repressor L1-31) MGSRLDKSKVINSALELLNEVGIEGLTTRKLAQKLGVEQPTLYWHVKNKRALLDALAIEMLDRHATHFCPLEGESWQDFLRNNAKSMRCALLSHRDGAKVMLGTRATEKQYETVENRLAFLCQQGFSLENALYAVRAVHWFTLGCVLIDQEMQVAKEERETPTTDSMPPLLRQAYELYDHQGAEPAFLFGLELIICGLEKQLKCESGS", "readout-number": 1.4}
{"molecule": "L1-22: library L1 hit, sulfonylurea-responsive TetR(B) variant, SEQ ID NO: 7 (protein, Sulfornylurea responsive repressor L1-22) MGSRLDKSKVINSALELLNEVGIEGLTTRKLAQKLGVEQPTLYWHVKNKRALLDALAIEMMDRHHTHFCPLEGESWQDFLRNTAKSYRCALLSHRDGAKVCLGTAITEKQYETKENNLAFLCQQGFSLENALYARQAVRVFTLGCVLFDQEMQVAKEERETPTTDSMPPLLRQASELLDHQGAEPAFLFGLELIICGLEKQLKSESGS", "readout-number": 0.2}

Where do these numbers come from? They come from patent US8580556B2.
